B1: ZBED2 (parent)
chain: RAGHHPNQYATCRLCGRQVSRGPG

- Variants of: B1
- assayNotes: protein stability index of a GFP-peptide fusion (GPS, HEK-293T) (PSI 1-6); higher = more stable;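 note: lentivirally expressed fusions sorted by FACS into six bins by GFP to DsRed ratio, PSI derived from sequencing read proportions per bin multiplied by bin number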
- details: c terminus: a fixed tail appended
Label rule, in plain words: protein stability index of 2 and up is MET, under 2 is NOT MET.

As a guide, the following entries are already answered.
| sequenceVariant | labelValue |
| --- | --- |
| N7K | NOT MET |
| A10V | NOT MET |
| G24H | MET |

State whether the measured protein stability index reaches 2, counting equality as reaching it, for Q18P MET

State whether the measured protein stability index reaches 2, counting equality as reaching it, for H5K MET
